Assay: Tissue distribution of SH-337 in rats (LC-MS/MS)
Assay type: in vivo, rat
Conditions: male, SD, rat, liver, po, 4 mg/kg, rats, single oral 4 mg/kg SH-337; read-out: Concentration, Liver, 24 h
Readout: concentration at 24 h (ng/mL)

smiles_record=CNCc1cc(-c2ccc(OCC3CC3)cc2F)n(S(=O)(=O)c2cccnc2)c1.Cl.Cl readout="concentration at 24 h" measurement=1.3

----------
Biological target: rabbit gastric H+, K+-ATPase (Oryctolagus cuniculus, UniProt P27112)
Construct: using rabbit gastric H^+, K^+-ATPase; from tissue; host or cells: rabbit stomach (gastric preparation; the method of preparation is not described)
Sequence (P27112 whole entry): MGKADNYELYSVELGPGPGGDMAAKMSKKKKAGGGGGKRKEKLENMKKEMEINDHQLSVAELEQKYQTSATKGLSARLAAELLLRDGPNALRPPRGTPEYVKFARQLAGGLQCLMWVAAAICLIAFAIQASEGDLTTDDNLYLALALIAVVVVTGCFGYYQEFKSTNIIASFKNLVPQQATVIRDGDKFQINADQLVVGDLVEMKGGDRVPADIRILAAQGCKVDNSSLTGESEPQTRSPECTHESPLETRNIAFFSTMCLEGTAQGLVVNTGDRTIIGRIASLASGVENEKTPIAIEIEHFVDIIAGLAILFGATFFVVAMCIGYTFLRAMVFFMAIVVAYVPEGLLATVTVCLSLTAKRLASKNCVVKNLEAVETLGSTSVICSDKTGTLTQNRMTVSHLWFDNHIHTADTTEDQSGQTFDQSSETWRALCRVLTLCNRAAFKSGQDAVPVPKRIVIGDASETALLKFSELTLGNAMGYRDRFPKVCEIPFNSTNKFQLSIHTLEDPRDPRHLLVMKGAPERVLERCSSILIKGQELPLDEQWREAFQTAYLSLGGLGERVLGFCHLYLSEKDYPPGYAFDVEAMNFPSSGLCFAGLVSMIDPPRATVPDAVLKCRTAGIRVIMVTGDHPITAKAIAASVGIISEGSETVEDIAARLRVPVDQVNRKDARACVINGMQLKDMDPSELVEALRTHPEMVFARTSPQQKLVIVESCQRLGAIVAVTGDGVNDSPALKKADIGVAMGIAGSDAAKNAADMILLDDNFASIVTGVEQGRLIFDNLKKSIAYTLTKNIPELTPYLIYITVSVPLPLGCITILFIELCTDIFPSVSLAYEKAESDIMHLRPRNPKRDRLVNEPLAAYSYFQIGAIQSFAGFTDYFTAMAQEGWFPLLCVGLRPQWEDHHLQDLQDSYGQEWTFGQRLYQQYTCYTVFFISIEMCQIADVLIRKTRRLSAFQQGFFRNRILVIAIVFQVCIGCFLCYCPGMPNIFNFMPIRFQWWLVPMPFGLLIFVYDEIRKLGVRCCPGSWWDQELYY
Sequence (P18597 whole entry partner): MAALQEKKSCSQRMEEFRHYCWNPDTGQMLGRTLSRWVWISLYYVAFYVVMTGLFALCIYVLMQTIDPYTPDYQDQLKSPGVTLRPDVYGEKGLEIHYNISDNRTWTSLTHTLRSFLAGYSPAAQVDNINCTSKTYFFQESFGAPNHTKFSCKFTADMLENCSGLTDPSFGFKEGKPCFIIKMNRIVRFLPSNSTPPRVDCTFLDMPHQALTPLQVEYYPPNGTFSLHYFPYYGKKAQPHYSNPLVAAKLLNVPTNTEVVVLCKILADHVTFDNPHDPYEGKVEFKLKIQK
Experiment: In vitro enzymatic activity assay (inorganic phosphate from ATP hydrolysis)
Type: biochemical
Attribute: IC50
Readout: IC50 (nM)

smiles_record=CNCc1cc(-c2ccc(OCc3cnn(C)c3)cc2F)n(S(=O)(=O)c2cccnc2)c1 readout=IC50 measurement=57.8
smiles_record=CNCc1cc(-c2ccc(OCC3CC3)cc2F)n(S(=O)(=O)c2cccnc2)c1.Cl.Cl readout=IC50 measurement=33.8
smiles_record=CNCc1cc(-c2ccc(O)cc2F)n(S(=O)(=O)c2cccnc2)c1.Cl.Cl readout=IC50 measurement=112
smiles_record=CNCc1cc(-c2ccc(OCC3COC3)cc2F)n(S(=O)(=O)c2cccnc2)c1 readout=IC50 measurement=129
smiles_record=CNCc1cc(-c2ccccc2F)n(S(=O)(=O)c2cccnc2)c1.O=C(O)/C=C/C(=O)O readout=IC50 measurement=65.5
